Would you kindly list AC50 for each of these molecules?
test_system: Kelch-like ECH-associated protein 1 (Homo sapiens)
test_method_notes: Keap1-Nrf2 protein-protein interaction inhibitors, dose response, biochemical, fluorescence polarization, dry powder samples (AID 651798)
stated_conditions: Keap1 Kelch/FITC-Nrf2 peptide fluorescence polarization
Calls of active or inactive are those of the source.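 Rule for the calls: active = fitted AC50 at or below twice the top valid dose, with signal falling as dose rises; inconclusive = flat fit between -30 and -70%, or poor fit; inactive = the rest, including rising effects.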

- molecule: "O=C(O)C1CCCCC1C(=O)N1CCc2ccccc2C1CN1Cc2ccccc2C1=O (stereo unspecified)"
  AC50: "31.9 µM"
- molecule: "Cc1ccc(S(=O)(=O)Nc2cc(C(C(=O)OC(C)C)C(=O)C(F)(F)F)c(O)c3ccccc23)c(C)c1 (stereo unspecified)"
  AC50: "2.26 µM"
- molecule: "COC(=O)C(C(=O)OC)c1cc(NS(=O)(=O)c2c(C)cc(C)cc2C)c2ccccc2c1O"
  AC50: "34.2 µM"
- molecule: "Cc1cc(C)c(S(=O)(=O)Nc2cc(C(C(=O)OC(C)C)C(=O)C(F)(F)F)c(O)c3ccccc23)c(C)c1 (stereo unspecified)"
  AC50: "0.673 µM"
- molecule: "Cc1ccc(S(=O)(=O)Nc2cc(C(C(=O)OC(C)C)C(=O)C(F)(F)F)c(O)c3ccccc23)cc1 (stereo unspecified)"
  AC50: "7.25 µM"
- molecule: "O=C(O)[C@H]1CCCC[C@H]1C(=O)N1CCC2=C(CCCC2)C1CN1C(=O)c2ccccc2C1=O (stereo partly specified)"
  AC50: "> 100 µM (inactive)"
- molecule: "CC(=O)Nc1cc(NS(=O)(=O)c2c(C)cc(C)cc2C)c2ccccc2c1O"
  AC50: "15.2 µM"
- molecule: "NC(=O)c1ccccc1C(=O)NC[C@@H]1c2ccccc2CCN1C(=O)[C@@H]1CCCC[C@@H]1C(=O)O"
  AC50: "> 100 µM (inactive)"

List reported AC50 for each of these molecules:
1. CC(C)OC(=O)C(C(=O)C(F)(F)F)c1cc(NS(=O)(=O)c2ccccc2)c2ccccc2c1O (stereo unspecified)
2. Cc1ccccc1S(=O)(=O)Nc1cc(C(C(=O)OC(C)C)C(=O)C(F)(F)F)c(O)c2ccccc12 (stereo unspecified)
3. O=C(NCCc1ccccc1)c1ccccc1C(=O)NC[C@@H]1c2ccccc2CCN1C(=O)C1CCCCC1C(=O)O (stereo partly specified)
4. O=C(O)[C@H]1C2C=CC(C2)[C@H]1C(=O)N1CCc2ccccc2C1CN1C(=O)c2ccccc2C1=O (stereo partly specified)
5. Cc1ccc(S(=O)(=O)NC(=O)[C@@H]2c3ccccc3CCN2C(=O)[C@@H]2CCCC[C@@H]2C(=O)O)cc1

Found:
["21.8 µM", "3.2 µM", "> 100 µM (inactive)", "> 100 µM (inactive)", "> 100 µM (inactive)"]
